Cited source for all entries: patent US8778974B2

So I've got a bunch of compounds here, and I need their melting point values.
Give just the number in °C; leave the unit off.

Qu. So what's the measured melting point for this one? C/C=C/c1nc(Nc2ccc(F)c(C(F)(F)F)c2)nn1-c1ccnc(C)c1
Ans. 226.3

Qu. So what's the measured melting point for this one? CCc1cc(-n2nc(Nc3cc(OC)cc(C(F)(F)F)c3)nc2C[C@H](C)O)ccn1
Ans. 156.2

Qu. So what's the measured melting point for this one? C[C@H](O)Cc1nc(Nc2ccc(F)c(C(F)(F)F)c2)nn1-c1ccc(F)cc1
Ans. 170.4

----------
So I've got a bunch of molecules here, and I need their melting point values.
Give just the number in °C; leave the unit off.

Qu. So what's the measured melting point for this one? COc1cc(Nc2nc(C[C@H](C)O)n(-c3ccc(C)nc3)n2)cc(C(F)(F)F)c1
Ans. 137.5

Qu. So what's the measured melting point for this one? COc1cc(Cl)cc(Nc2nc(CC(=O)NC3CCC3)n(-c3cc(C)nc(C)c3)n2)c1
Ans. 257.8

Qu. So what's the measured melting point for this one? Cc1cc(-n2nc(Nc3ccc(F)c(Cl)c3)nc2CC(=O)NC2CCC2)cc(C)n1
Ans. 273.9

Qu. So what's the measured melting point for this one? CC[C@@H](O)Cc1nc(Nc2cc(OC)cc(C(F)(F)F)c2)nn1-c1ccc(C)nc1
Ans. 151.9

Qu. So what's the measured melting point for this one? Cc1cc(-n2nc(Nc3ccc(F)c(F)c3)nc2CCC(=O)N(C)C)cc(C)n1
Ans. 200.2

Qu. So what's the measured melting point for this one? CC[C@H](O)Cc1nc(Nc2ccc(F)c(F)c2)nn1-c1cccc(OC)c1
Ans. 144.1

Qu. So what's the measured melting point for this one? Cc1cc(-n2nc(Nc3ccc4c(c3)OC(F)(F)O4)nc2CC(=O)NCC2CC2)cc(C)n1
Ans. 270.3

Qu. So what's the measured melting point for this one? CN(C)C(=O)CCc1nc(Nc2cccc(OC(F)(F)F)c2)nn1-c1cccnc1Cl
Ans. 145.7

Qu. So what's the measured melting point for this one? CC[C@H](O)Cc1nc(Nc2cc(OC)cc(C(F)(F)F)c2)nn1-c1ccnc(C)c1
Ans. 174.1

Qu. So what's the measured melting point for this one? COc1cc(Nc2nc(C[C@H](C)O)n(-c3cccnc3)n2)cc(C(F)(F)F)c1
Ans. 145.5

Qu. So what's the measured melting point for this one? CC[C@H](O)Cc1nc(Nc2ccc(OC)cc2)nn1-c1ccnc(C)c1
Ans. 133.2
